biological target: T1, HCV Core 134-171-TT Peptide (hepatitis C virus (HCV-1 numbering) …); experiment: SPR, captured mAb, peptide analyte
T1 construct: also called ALRZ-9 peptide
propertyMeasured: kon (M⁻¹ s⁻¹)
Number in M⁻¹ s⁻¹, nothing else.

Worked examples, 5 binders total:
HCV 208A-222 (antibody, V domains shown) VH: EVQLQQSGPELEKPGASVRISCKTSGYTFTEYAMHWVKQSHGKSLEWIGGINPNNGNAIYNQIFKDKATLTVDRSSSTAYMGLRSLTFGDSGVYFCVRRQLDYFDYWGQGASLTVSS VL: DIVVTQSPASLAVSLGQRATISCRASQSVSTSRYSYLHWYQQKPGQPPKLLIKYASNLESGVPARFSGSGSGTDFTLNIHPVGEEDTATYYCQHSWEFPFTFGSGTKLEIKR ... 1.1e+06
HCV 208B-612 (antibody, V domains shown) VH: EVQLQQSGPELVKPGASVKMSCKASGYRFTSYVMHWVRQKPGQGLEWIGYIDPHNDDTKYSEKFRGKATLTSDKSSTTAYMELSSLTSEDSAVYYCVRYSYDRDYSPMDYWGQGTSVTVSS VL: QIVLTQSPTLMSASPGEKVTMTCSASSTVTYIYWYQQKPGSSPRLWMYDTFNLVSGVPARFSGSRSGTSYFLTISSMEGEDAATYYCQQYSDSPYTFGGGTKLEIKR ... 180000
HCV 208B-395 (antibody, V domains shown) VH: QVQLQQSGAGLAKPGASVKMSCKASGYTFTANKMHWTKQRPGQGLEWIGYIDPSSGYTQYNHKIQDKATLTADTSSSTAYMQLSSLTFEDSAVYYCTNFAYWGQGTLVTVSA VL: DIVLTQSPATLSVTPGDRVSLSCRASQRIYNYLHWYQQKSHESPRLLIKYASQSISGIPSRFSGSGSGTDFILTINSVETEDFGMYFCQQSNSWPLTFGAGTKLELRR ... 1.3e+06
HCV 208A-638 (antibody, V domains shown) VH: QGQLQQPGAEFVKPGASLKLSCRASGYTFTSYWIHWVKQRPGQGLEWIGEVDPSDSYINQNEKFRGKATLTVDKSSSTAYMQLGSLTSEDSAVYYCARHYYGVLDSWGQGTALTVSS VL: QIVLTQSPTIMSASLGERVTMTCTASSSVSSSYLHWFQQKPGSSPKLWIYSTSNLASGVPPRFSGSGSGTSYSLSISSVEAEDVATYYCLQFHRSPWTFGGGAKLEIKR ... 2.7e+06
HCV 208A-207 (antibody, V domains shown) VH: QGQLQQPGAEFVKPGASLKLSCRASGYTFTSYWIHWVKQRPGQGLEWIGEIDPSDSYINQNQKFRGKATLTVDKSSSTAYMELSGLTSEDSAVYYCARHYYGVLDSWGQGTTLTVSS VL: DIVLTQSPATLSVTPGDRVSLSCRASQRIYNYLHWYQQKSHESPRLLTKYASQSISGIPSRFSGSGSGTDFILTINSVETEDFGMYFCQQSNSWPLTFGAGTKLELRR ... 310000

In: Using the record for HCV 208B-281 (antibody, V domains shown) VH: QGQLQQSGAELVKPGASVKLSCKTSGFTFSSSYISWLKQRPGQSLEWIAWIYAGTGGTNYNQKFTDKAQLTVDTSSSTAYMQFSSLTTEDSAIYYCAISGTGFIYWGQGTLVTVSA VL: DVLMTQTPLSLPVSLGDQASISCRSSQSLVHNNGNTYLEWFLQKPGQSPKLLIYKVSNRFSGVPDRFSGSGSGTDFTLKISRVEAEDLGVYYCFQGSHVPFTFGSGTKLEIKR , report its kon.
Out: 2200

In: Using the record for HCV 208B-1094 (antibody, V domains shown) VH: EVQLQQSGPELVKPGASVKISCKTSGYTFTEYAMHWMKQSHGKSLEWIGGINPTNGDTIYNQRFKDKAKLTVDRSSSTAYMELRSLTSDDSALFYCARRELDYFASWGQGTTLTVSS VL: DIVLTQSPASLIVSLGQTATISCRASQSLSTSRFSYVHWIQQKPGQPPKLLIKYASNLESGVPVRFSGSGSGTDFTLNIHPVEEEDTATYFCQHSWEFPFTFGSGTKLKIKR , report its kon.
Out: 1.5e+06

In: Using the record for HCV 208A-557 (antibody, V domains shown) VH: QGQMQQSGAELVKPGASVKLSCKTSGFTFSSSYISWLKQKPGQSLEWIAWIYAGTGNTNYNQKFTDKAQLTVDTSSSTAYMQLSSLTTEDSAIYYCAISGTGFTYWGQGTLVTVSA VL: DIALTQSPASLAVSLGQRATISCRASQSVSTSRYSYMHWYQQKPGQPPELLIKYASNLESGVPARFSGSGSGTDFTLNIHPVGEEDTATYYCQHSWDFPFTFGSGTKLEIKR , report its kon.
Out: 2.4e+06

In: Using the record for HCV 208B-560 (antibody, V domains shown) VH: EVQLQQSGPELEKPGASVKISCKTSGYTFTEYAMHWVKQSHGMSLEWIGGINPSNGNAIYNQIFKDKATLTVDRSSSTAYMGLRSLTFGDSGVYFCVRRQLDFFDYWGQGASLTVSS VL: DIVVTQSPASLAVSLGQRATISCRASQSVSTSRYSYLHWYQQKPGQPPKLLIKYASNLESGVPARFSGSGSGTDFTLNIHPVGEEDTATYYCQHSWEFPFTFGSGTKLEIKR , report its kon.
Out: 1.1e+06

In: Using the record for HCV 208A-134 (antibody, V domains shown) VH: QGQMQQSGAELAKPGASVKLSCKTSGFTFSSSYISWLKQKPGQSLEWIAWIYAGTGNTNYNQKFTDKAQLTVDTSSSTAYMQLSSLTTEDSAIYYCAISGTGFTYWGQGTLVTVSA VL: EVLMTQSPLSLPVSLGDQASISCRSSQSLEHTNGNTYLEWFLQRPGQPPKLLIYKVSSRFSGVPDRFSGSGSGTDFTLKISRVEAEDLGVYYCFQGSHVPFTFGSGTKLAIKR , report its kon.
Out: 18000
